assay: recombinant barcode read abundance after kanamycin selection (control-corrected) (log10(CPM+1)); higher = more efficient recombination; sequences stand for … in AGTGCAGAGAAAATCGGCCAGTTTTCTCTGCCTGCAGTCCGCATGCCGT…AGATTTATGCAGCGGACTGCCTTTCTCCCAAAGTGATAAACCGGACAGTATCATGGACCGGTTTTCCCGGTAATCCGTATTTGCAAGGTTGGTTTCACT; site = the 11-nt target
Provide the recorded recombinant barcode read abundance (log10) for the entries that follow.
Reply briefly: the number, and no unit.

Param item = ACCAGCCCTTGGGTTCTAACCTGTTGCTG (site ACCAGCCCTCA) ; retrieve measured recombinant barcode read abundance (log10).
1.38

Now consider CATAGGCCTTGGGTTCTAACCTGTTGCAT (site CATAGGCCTAT) and answer again.
0.811

Follow-up entry: CGTGTAACTTGGGTTCTAACCTGTTGCTT (site CGAGCAACTAA)
0.0308

Let us now turn to TAACGGTCTTGGGTTCTAACCTGTTGCTT (site TAACGATCTAT)
0.44

GGCCGGACTTGGGTTCTAACCTGTTGCCT (site GGCCGGCCTAG) , same question.
0.253

// next record CTATGACCTTGGGTTCTAACCTGTTGCGT (site CTATGACCTAT)
1.26

Now give it for GCTCCTACTTGGGTTCTAACCTGTTGCCT (site GATCCTACTAG) too.
0.118

# repeat for ATCCAACCTTGGGTTCTAACCTGTTGCCT (site ATCCACCCTAG)
0.123

And then ACCCAGTCTTGGGTTCTAACCTGTTGCGG (site ACCCAGTCTCC) , what is it?
2.08

Same read-out for CGCACGTCTTGGGTTCTAACCTGTTGCTT (site CGCACGTCTAA) ?
0.0911

====

assay: recombinant UMI read abundance after kanamycin selection (control-corrected) (log10(CPM+1)); higher = more efficient recombination; extreme values may be limits of the assay; sequences stand for … in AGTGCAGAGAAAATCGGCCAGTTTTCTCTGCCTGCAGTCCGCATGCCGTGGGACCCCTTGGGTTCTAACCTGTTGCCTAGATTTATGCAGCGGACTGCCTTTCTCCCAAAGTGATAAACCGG…AGGTTGGTTTCACT; site = the 11-nt donor
Assign recombinant UMI read abundance (log10) to each entry below.
Just the number, please, no unit attached.

Request the reported recombinant UMI read abundance (log10) associated with GTAATTGCATGGACCGGTTTTCCCGGTAATCCGTATTTGTA (site GTAATTGCTTA)
2.57

Same question for CGAGCATCATGGACCGGTTTTCCCGGTAATCCGTATTTGCA (site CGATCATCTAG) please.
0

Try GCGGCGACATGGACCGGTTTTCCCGGTAATCCGTATTTGGC (site GCGGCGACTGC) next.
1.99

And then GTTCCTTCATGGACCGGTTTTCCCGGTAATCCGTATTTGAC (site GTTCCTTCTGT) , what is it?
0.671

Record: ACAGATCCATGGACCGGTTTTCCCGGTAATCCGTATTTGAC (site ACACATCCTGT)
0

Quick one: TATTAACCATGGACCGGTTTTCCCGGTAATCCGTATTTGCC (site TATTAACCTGG)
0

What do you have for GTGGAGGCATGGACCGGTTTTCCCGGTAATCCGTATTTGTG (site GTGGGGGCTCA) ?
0.918

How about this sequence: CTAATCTCATGGACCGGTTTTCCCGGTAATCCGTATTTGAC (site CTAGTATCTGT)
0

Again, but for AATAGTGCATGGACCGGTTTTCCCGGTAATCCGTATTTGAG (site AATAGTGCTCT)
1.4
